- experimental-system: P450 2C19 (Homo sapiens (Human), UniProt P33261)
- Sequence (P33261 whole entry): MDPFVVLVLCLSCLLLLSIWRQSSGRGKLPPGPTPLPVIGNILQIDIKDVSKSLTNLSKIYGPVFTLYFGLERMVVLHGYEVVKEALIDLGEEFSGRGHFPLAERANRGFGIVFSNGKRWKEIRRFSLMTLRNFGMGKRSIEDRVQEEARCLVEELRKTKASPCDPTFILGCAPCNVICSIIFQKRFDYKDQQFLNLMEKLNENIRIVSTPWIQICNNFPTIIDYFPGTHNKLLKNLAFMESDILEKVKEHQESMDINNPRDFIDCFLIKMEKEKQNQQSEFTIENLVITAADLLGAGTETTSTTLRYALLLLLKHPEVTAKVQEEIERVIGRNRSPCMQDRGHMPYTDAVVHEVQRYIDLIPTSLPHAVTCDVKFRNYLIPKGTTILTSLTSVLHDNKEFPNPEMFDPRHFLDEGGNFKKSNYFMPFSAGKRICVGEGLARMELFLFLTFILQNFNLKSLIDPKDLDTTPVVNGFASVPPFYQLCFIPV
- assay-details: Cytochrome P450 isoenzyme inhibition assay, hydroxylation of Mephenytoin
- Format: in vitro ADME
- condition-context: (S)-isomers; human liver microsomes, 37° C.
value-kind: IC50

>>> recorded_result("CN[C@@H](C)C(=O)Nc1ccc(-c2c(-c3ccnc(C)c3)nc3cc(C)ccn23)c(C#Cc2ccc3c(C)nccc3c2)n1 [(S)-2]")
"1.9 µM"

If you can, please state the reported IC50 value of CN[C@@H](C)C(=O)Nc1ccc(-c2c(-c3ccnc(C)c3)nc3cc(C)ccn23)c(C#Cc2ccccc2)n1 [(S)-11] . 14 µM

If you can, please state the reported IC50 value of CN[C@@H](C)C(=O)Nc1ccc(-c2c(-c3cccnc3OC)nc3ccccn23)c(C#Cc2ccc3c(C)nccc3c2)n1 [(S)-16] . > 50 µM

If you can, please state the reported IC50 value of CN[C@@H](C)C(=O)Nc1ccc(-c2c(-c3ccnc(OC)c3)nc3cc(C)ccn23)c(C#Cc2ccc3c(C)nccc3c2)n1 [(S)-8] . 38 µM

###

- experimental-system: P450 2C19 (Homo sapiens (Human))
- assay-details: Cytochrome P450 isoenzyme inhibition assay, hydroxylation of Mephenytoin
- Type: in vitro ADME
- condition-context: (S)-isomers; human liver microsomes, 37° C.
pIC50: −log10 of the molar value.
We begin with a simple list: items and their reported pIC50.

If you can, please state the reported pIC50 value of CN[C@@H](C)C(=O)Nc1ccc(-c2c(-c3cccnc3OC)nc3cc(C)ccn23)c(C#Cc2ccc3c(ccc(=O)n3C)c2)n1 [(S)-10] . < 4.30

###

We begin with a simple list: items and their reported pIC50.
- experimental-system: P450 2C19 (Homo sapiens (Human), UniProt P33261)
- assay-details: Cytochrome P450 isoenzyme inhibition assay, hydroxylation of Mephenytoin
- Assay type: in vitro ADME
- condition-context: (S)-isomers; human liver microsomes, 37° C.
Kindly note that pIC50 refers to -log10 of the concentration in mol/L and answer with the value alone.

>>> recorded_result("CN[C@@H](C)C(=O)Nc1ccc(-c2c(-c3cncn3C)nc3cc(C)ccn23)c(C#Cc2ccc3c(C)nccc3c2)n1 [(S)-4]")
4.44

Now look at this entry.
Give pIC50 (P450 2C19 (Homo sapiens (Human), UniProt P33261)) of the following compound: CN[C@@H](C)C(=O)Nc1ccc(-c2c(-c3cccnc3OC)nc3cc(Cl)ccn23)c(C#Cc2ccc3c(C)nccc3c2)n1 [(S)-15] 4.49

###

- experimental-system: P450 2C8 (Homo sapiens (Human))
- Sequence (P10632 whole entry): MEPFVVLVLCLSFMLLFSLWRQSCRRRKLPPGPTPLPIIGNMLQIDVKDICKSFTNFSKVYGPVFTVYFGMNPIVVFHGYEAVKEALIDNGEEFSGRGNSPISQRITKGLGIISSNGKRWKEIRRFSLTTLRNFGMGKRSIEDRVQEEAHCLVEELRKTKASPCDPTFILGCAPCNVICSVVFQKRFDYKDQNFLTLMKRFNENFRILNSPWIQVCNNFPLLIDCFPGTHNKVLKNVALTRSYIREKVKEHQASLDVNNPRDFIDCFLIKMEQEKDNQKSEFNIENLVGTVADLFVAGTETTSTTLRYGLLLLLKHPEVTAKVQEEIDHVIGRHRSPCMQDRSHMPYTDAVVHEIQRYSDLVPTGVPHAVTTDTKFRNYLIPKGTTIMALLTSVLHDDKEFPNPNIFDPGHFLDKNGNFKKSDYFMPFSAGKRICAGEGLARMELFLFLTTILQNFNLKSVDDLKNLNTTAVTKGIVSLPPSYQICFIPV
- assay-details: Cytochrome P450 isoenzyme inhibition assay, deethylation of Amodiaquine
- Assay type: in vitro ADME
- condition-context: measured examples from WO 2013/127729 (Table 1)
pIC50: −log10 of the molar value.
Mark criterion met for reported pIC50 of 6 or greater; mark criterion not met for anything smaller.

>>> assigned_label("CNC(C)C(=O)Nc1ccc(-c2c(-c3ccncc3)nc3cc(C)ccn23)c(C#Cc2ccc(-c3ccon3)cc2)n1 (centres unmarked) [Ex 82, reference compound]")
"criterion met"

Check this molecule for pIC50 at or above 6: CNC(C)C(=O)Nc1ccc(-c2c(-c3ccncc3)nc3cc(C)ccn23)c(C#Cc2ccc3nc(C)ccc3c2)n1 (centres unmarked) [Ex 64, reference compound] criterion met

Check this molecule for pIC50 at or above 6: CNC(C)C(=O)Nc1ccc(-c2c(-c3ccncc3)nc3cc(C)ccn23)c(C#Cc2ccccc2)n1 (centres unmarked) [Ex 185, reference compound] criterion not met

Check this molecule for pIC50 at or above 6: CNC(C)C(=O)Nc1ccc(-c2c(-c3ccncc3)nc3cc(C)ccn23)c(C#Cc2ccc3c(c2)OCC(=O)N3C)n1 (centres unmarked) [Ex 94, reference compound] criterion not met
